Where these numbers come from: the supplement of paper PMC3334620

# TESTED TARGET: Stb5 (UniProt P38699)
# Sequence: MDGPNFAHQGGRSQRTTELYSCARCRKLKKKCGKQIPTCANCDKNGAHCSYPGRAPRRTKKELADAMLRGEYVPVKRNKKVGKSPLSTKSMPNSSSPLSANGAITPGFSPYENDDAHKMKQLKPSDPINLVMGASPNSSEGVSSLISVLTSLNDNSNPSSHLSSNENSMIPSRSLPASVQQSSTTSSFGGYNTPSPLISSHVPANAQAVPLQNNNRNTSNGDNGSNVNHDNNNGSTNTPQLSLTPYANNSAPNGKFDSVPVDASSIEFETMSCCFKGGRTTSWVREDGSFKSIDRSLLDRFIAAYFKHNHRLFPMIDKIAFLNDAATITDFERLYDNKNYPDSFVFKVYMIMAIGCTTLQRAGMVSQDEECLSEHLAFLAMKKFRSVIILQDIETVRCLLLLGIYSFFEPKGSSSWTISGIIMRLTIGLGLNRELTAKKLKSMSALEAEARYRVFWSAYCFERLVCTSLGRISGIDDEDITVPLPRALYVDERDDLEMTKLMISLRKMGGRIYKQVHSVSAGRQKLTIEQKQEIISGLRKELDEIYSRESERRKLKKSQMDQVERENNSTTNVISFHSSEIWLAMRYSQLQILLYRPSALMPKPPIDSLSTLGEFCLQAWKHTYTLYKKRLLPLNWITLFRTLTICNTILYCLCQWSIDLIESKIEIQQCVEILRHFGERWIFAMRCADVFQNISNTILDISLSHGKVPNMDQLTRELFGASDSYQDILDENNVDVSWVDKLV
# PROCEDURE TEXT: PBM E-score (8-mer binding enrichment) (E-score (-0.5 to 0.5)); higher = stronger / more preferred TF binding
# RUN PARAMETERS: protein concentration: 200 nM; construct: GST-full length
The full ranking holds about 33,000 sequences; the median of “E-score (-0.5 to 0.5)” is about -0.054, and the highest 2% start at about 0.35. This is one part of a sample in which the highest values are shown more often than they occur.
Class Fulfilled: PBM E-score at least 0.06. Class Not fulfilled: PBM E-score below 0.06.

BIOPOLYMER SEQUENCE: AACACTGT
LABEL: Not fulfilled
//
BIOPOLYMER SEQUENCE: CGCGGTAG
LABEL: Fulfilled
//
BIOPOLYMER SEQUENCE: AACCTAGC
LABEL: Not fulfilled
//
BIOPOLYMER SEQUENCE: CGCGGTGA
LABEL: Fulfilled
//
BIOPOLYMER SEQUENCE: AGGGCCCT
LABEL: Not fulfilled

Task item: Decide: PBM E-score of CCCGGTGA >= 0.06?
Reply: Fulfilled

Task item: Would you mind doing CGCGGTGC as well?
Reply: Fulfilled

Task item: Would you mind doing AGCGGTCC as well?
Reply: Fulfilled

Task item: Would you mind doing GGCGGTCA as well?
Reply: Fulfilled

Task item: Would you mind doing AATCATTG as well?
Reply: Not fulfilled

* * *

# TESTED TARGET: Stb5 (UniProt P38699)
# Sequence: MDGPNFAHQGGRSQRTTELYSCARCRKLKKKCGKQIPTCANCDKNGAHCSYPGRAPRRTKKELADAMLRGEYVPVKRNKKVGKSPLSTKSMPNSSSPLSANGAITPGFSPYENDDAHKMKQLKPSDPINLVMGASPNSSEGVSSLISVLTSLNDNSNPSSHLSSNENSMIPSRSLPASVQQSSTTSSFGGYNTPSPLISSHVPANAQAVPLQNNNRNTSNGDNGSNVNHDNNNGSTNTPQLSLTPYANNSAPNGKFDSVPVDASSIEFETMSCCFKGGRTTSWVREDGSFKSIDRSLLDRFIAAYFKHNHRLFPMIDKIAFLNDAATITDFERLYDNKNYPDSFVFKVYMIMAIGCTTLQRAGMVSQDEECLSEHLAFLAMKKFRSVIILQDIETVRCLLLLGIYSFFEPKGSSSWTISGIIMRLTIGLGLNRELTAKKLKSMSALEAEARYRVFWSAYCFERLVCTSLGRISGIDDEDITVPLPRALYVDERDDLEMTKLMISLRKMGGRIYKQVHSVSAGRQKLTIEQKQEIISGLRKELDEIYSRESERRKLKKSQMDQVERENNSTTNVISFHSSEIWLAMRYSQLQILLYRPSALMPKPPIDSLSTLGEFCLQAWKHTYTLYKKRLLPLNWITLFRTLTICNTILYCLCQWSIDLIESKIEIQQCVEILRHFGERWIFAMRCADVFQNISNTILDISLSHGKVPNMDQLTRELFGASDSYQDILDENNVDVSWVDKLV
# PROCEDURE TEXT: PBM E-score (8-mer binding enrichment) (E-score (-0.5 to 0.5)); higher = stronger / more preferred TF binding
# RUN PARAMETERS: protein concentration: 200 nM; construct: GST-full length
In all, about 33,000 sequences were measured (“E-score (-0.5 to 0.5)”: median about -0.054, highest 2% from about 0.35 on). For the sample, the highest values were picked, then their nearest neighbours and some sequences at random.
Reported PBM E-score values follow for various sequences
Enter the number alone.

BIOPOLYMER SEQUENCE: TGCCTTAA
PBM E-score: -0.192

Task item: So what does the record say about PBM E-score for CGGCTTCA ?
Reply: 0.259

Task item: Would you mind doing AAGGCCGG as well?
Reply: 0.407

Task item: Would you mind doing TAGTGGCA as well?
Reply: -0.0544

Task item: Would you mind doing ACTATTCA as well?
Reply: -0.084

Task item: Would you mind doing CACCGGTA as well?
Reply: 0.408

Task item: Would you mind doing GGAGTTAC as well?
Reply: 0.365

Task item: Would you mind doing TAGATTGA as well?
Reply: 0.0223

Task item: Would you mind doing CCGACCGC as well?
Reply: 0.284

Task item: Would you mind doing AGTCGGGA as well?
Reply: 0.287

Task item: Would you mind doing CCCGTGAC as well?
Reply: 0.155

Task item: Would you mind doing TGTATACA as well?
Reply: 0.0199

Task item: Would you mind doing GCCTTCGA as well?
Reply: -0.137

Task item: Would you mind doing ACGGGGTC as well?
Reply: 0.362

Task item: Would you mind doing CACCGGTC as well?
Reply: 0.337

Task item: Would you mind doing GAAACCCC as well?
Reply: 0.353

Task item: Would you mind doing AGCCTTAA as well?
Reply: -0.0403

Task item: Would you mind doing CAGGCCGG as well?
Reply: 0.11

Task item: Would you mind doing ATAACGAG as well?
Reply: -0.103

* * *

# TESTED TARGET: Stb5 (UniProt P38699)
# Sequence: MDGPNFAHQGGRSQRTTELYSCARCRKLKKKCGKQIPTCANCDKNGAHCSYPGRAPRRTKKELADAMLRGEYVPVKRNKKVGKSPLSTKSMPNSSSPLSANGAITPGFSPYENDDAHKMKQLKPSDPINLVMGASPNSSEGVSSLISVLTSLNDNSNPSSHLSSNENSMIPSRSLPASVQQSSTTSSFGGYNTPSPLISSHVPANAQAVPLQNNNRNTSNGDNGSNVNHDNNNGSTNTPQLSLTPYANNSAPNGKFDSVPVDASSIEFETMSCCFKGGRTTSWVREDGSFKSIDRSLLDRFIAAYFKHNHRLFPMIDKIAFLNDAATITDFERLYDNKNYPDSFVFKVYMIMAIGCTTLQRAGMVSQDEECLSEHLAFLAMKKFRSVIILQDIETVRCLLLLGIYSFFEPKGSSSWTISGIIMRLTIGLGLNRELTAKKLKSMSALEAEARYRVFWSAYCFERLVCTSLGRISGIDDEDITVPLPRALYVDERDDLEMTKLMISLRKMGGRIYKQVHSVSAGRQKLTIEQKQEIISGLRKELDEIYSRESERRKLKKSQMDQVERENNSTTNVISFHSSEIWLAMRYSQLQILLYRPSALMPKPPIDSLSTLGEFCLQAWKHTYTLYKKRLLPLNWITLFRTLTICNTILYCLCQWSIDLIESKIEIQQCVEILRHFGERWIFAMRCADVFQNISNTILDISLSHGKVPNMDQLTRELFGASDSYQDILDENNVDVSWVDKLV
# PROCEDURE TEXT: PBM E-score (8-mer binding enrichment) (E-score (-0.5 to 0.5)); higher = stronger / more preferred TF binding
# RUN PARAMETERS: protein concentration: 200 nM; construct: GST-full length
The full ranking holds about 33,000 sequences; the median of “E-score (-0.5 to 0.5)” is about -0.054, and the highest 2% start at about 0.35. Shown is part of a subset that was picked to be rich in the highest values.
MEASUREMENT TYPE: PBM E-score
Enter the number alone.

BIOPOLYMER SEQUENCE: AAATACTG
TESTED TARGET: Stb5 (UniProt P38699)
PBM E-score: -0.0876

Task item: So what does the record say about PBM E-score for CCGTCTCC ?
Reply: 0.22

Task item: Would you mind doing ATAAAGAG as well?
Reply: -0.0867
